assay: Phase 1 relative bioavailability study: plasma pharmacokinetics of midazolam, 1-hydroxymidazolam, ketamine and norketamine; settings: human, plasma, iv, 3.5 mg
Measurement name: Vd (L)
Numbers only here, please. The scale is L.

Could you share which Vd value was measured for `Cc1ncc2n1-c1ccc(Cl)cc1C(c1ccccc1F)=NC2` ?
202

====

assay: Phase 1 relative bioavailability study: plasma pharmacokinetics of midazolam, 1-hydroxymidazolam, ketamine and norketamine; conditions: human, plasma, iv, 3.5 mg, GeoMean Cmax, midazolam, Ref (C) midazolam 3.5 mg IV; least squares geometric mean
Measurement name: Cmax (ng/mL)
Express your answer in ng/mL, writing the number without its unit.

// Cmax lookup, key: `Cc1ncc2n1-c1ccc(Cl)cc1C(c1ccccc1F)=NC2`
127
